Target or test system: human TYK2 (JH2domain-pseudokinase) (Homo sapiens (Human), UniProt P29597)
Sequence (P29597 556-888): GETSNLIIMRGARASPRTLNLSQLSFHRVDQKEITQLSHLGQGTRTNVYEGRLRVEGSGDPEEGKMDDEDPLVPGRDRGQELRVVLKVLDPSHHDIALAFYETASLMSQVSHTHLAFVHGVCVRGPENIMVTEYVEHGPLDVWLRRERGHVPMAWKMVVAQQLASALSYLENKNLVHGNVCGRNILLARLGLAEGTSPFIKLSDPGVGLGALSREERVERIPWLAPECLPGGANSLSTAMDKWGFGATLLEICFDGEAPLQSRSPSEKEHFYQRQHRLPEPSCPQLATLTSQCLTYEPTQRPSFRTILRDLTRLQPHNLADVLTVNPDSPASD
Assay details: TYK2 JH2 Domain Binding Assay (KINOMEscan)
Setup conditions: 11-point 3-fold dilution, top concentration 30,000 nM, duplicate
Entries and their measured Kd follow.

                                   compound  observable          val
0  CNC(=O)c1cnc(NC(=O)C2CC2)c2[nH]c(-c3ccc(C4=NC(C)(C)CO4)cc3OC)cc12          Kd  0.2 to 1 nM
1  CNC(=O)c1cnc(NC(=O)C2CC2)c2[nH]c(-c3cc(-c4ccn(C)n4)cnc3OC3CC3)cc12          Kd   1 to 10 nM
2  CNC(=O)c1cnc(NC(=O)C2CC2)c2[nH]c(-c3cccc(-c4cnn(C)c4)c3C#N)cc12          Kd  0.2 to 1 nM
3  CNC(=O)c1cnc(NC(=O)C2CC2)c2[nH]c(-c3cccn(C4CCCOC4)c3=O)cc12 (stereo not drawn) [Compound I-43]          Kd  0.2 to 1 nM
4  CNC(=O)c1cnc(NC(=O)C2CC2)c2[nH]c(-c3ccccc3N3CCC(O)CC3)cc12          Kd  0.2 to 1 nM

CNC(=O)c1cnc(NC(=O)C2CC2)c2[nH]c(-c3cnccc3OC3CC3)cc12 yielded Kd of < 0.2 nM

CNC(=O)c1cnc(NC(=O)C2CC2)c2[nH]c(-c3ccc(OC[C@@H]4CCCO4)cc3F)cc12 yielded Kd of < 0.2 nM

CNC(=O)c1cnc(NC(=O)C2CC2)c2[nH]c(-c3cccc(-c4ncn(C)n4)n3)cc12 yielded Kd of 0.2 to 1 nM

CNC(=O)c1cnc(NC(=O)C2CC2)c2[nH]c(-c3c(F)cc(-c4nccn4C)cc3N3CC[C@@H](OC)C3)cc12 yielded Kd of < 0.2 nM

CNC(=O)c1cnc(NC(=O)C2CC2)c2[nH]c(-c3ccc(N4CCCC4=O)cc3OC)cc12 yielded Kd of < 0.2 nM

CNC(=O)c1cnc(NC(=O)C2CC2)c2[nH]c(-c3ccc(=O)n(C4CC4)c3)cc12 yielded Kd of 1 to 10 nM

CNC(=O)c1cnc(NC(=O)C2CC2)c2[nH]c(-c3ccc(C(=O)N4CCC4)cc3OC)cc12 yielded Kd of < 0.2 nM

[2H]C([2H])([2H])NC(=O)c1cnc(NC(=O)C2CC2)c2[nH]c(-c3cc(-c4ncn(C)n4)ccn3)cc12 yielded Kd of < 0.2 nM

CNC(=O)c1cnc(NC(=O)C2CC2)c2[nH]c(-c3cccc(-n4ccc(C)n4)c3)cc12 yielded Kd of 0.2 to 1 nM

CNC(=O)c1cnc(NC(=O)C2CC2)c2[nH]c(-c3cccc(-c4nnn(C)n4)c3)cc12 yielded Kd of 0.2 to 1 nM

====

Target or test system: JAK2 kinase domain (JH1) (Homo sapiens (Human))
Sequence (O60674 849-1124): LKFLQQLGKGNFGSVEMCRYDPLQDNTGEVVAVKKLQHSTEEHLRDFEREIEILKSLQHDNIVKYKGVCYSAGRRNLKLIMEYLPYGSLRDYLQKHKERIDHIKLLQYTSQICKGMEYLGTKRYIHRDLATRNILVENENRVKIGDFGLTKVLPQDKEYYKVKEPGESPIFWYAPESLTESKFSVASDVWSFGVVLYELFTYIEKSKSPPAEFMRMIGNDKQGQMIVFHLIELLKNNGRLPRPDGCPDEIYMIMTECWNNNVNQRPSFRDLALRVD
Assay details: JAK2 Radioactive Kinase Assay
Format: biochemical
Setup conditions: compound at 10 μM; ATP at 10 μM; substrate poly[Glu:Tyr](4:1)
Protocol: Peptide substrate, [KKSRGDYMTMQIG], (20 μM) was prepared in reaction buffer (20 mM Hepes pH 7.5, 10 mM MgCl2, 1 mM EGTA, 0.02% Brij35, 0.02 mg/mL BSA, 0.1 mM Na3PO4, 2 mM DTT, 1% DMSO). […] The kinase reaction was incubated for 120 min at room temp and reactions were spotted onto P81 ion exchange paper (Whatman #3698-915), and then washed extensively in 0.75% phosphoric acid, prior to reading the radioactivity counts. […]
Observable: inhibition at 10 µM

CNC(=O)c1cnc(NC(=O)C2CC2)c2[nH]c(-c3ccc(=O)n(C4CC4)c3)cc12 [Compound I-40] yielded inhibition at 10 µM of < 50%

CNC(=O)c1cnc(NC(=O)C2CC2)c2[nH]c(-c3ccc4cn(C5CC5)nc4c3)cc12 [Compound I-20] yielded inhibition at 10 µM of < 50%

[2H]C([2H])([2H])NC(=O)c1cnc(NC(=O)C2CC2)c2[nH]c(-c3cccc(-c4ncn(C)n4)c3)cc12 [Compound I-6] yielded inhibition at 10 µM of < 50%

Cn1cnc(-c2cccc(-c3cc4c(C(N)=O)cnc(NC(=O)C5CC5)c4[nH]3)c2)n1 [Compound I-12] yielded inhibition at 10 µM of > 90%

CNC(=O)c1cnc(NC(=O)C2CC2)c2[nH]c(-c3cccnc3OC3CC3)cc12 [Compound I-34] yielded inhibition at 10 µM of < 50%

CCOc1ncccc1-c1cc2c(C(=O)NC)cnc(NC(=O)C3CC3)c2[nH]1 [Compound I-33] yielded inhibition at 10 µM of < 50%

CNC(=O)c1cnc(NC(=O)C2CC2)c2[nH]c(-c3cc(-c4csc(C)n4)ccn3)cc12 [Compound I-10] yielded inhibition at 10 µM of < 50%

====

Target or test system: TYK2 kinase domain (JH1) (Homo sapiens (Human))
Sequence (P29597 897-1176): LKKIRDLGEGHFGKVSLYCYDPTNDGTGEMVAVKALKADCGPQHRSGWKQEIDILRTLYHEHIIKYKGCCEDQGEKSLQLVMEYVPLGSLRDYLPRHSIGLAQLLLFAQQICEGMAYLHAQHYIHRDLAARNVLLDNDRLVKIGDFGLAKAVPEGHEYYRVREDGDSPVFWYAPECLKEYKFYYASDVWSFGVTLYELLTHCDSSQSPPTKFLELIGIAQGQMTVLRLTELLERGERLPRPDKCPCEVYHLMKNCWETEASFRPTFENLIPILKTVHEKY
Assay details: TYK2 Radioactive Kinase Assay
Assay type: biochemical
Setup conditions: compound at 10 μM; ATP at 10 μM; 120 min at room temp
Observable: inhibition at 10 µM

>>> print(df.to_string())
                    structure_smiles_string    val
0  CNC(=O)c1cnc(NC(=O)C2CC2)c2[nH]c(-c3ccccc3)cc12  < 50%
1  CNC(=O)CCCNc1ccc(-c2cc3c(C(=O)NC)cnc(NC(=O)C4CC4)c3[nH]2)c(OC)c1  < 50%
2  CCOc1ncccc1-c1cc2c(C(=O)NC)cnc(NC(=O)C3CC3)c2[nH]1  < 50%

Now let's try a different one.
CNC(=O)c1cnc(NC(=O)C2CC2)c2[nH]c(-c3cc(-c4csc(C)n4)ccn3)cc12 yielded inhibition at 10 µM of < 50%

====

Target or test system: human TYK2 (JH2domain-pseudokinase) (Homo sapiens (Human), UniProt P29597)
Assay details: TYK2 JH2 Domain Binding Assay (KINOMEscan)
Setup conditions: 11-point 3-fold dilution, top concentration 30,000 nM, duplicate
pKd: −log10 of the molar value.
Entries and their measured pKd follow.

In [3]: df
Out[3]:
                    structure_smiles_string           val
0  CNC(=O)c1cnc(Nc2ccn(C)n2)c2[nH]c(-c3cccc(-c4cnc(C)o4)c3F)cc12        > 9.70
1  CNC(=O)c1cnc(NC(=O)C2CC2)c2[nH]c(-c3cccc(-c4cn(C)c(C)n4)c3F)cc12        > 9.70
2  CNC(=O)c1cnc(NC(=O)C2CC2)c2[nH]c(-c3cc(-n4ccc(C)n4)ccn3)cc12  9.00 to 9.70

[2H]C([2H])([2H])NC(=O)c1cnc(NC(=O)C2CC2)c2[nH]c(-c3cccc(-c4ncn(C)n4)c3)cc12 yielded pKd of > 9.70

CNC(=O)c1cnc(NC(=O)C2CC2)c2[nH]c(-c3ccc4cn(C5CC5)nc4c3)cc12 yielded pKd of 9.00 to 9.70

CNC(=O)c1cnc(NC(=O)C2CC2)c2[nH]c(-c3ccc(C(=O)N4CC(F)(F)C4)cc3F)cc12 yielded pKd of > 9.70

CCOc1ncc(-c2ccn(C)n2)cc1-c1cc2c(C(=O)NC)cnc(NC(=O)C3CC3)c2[nH]1 yielded pKd of 8.00 to 9.00

CNC(=O)c1cnc(NC(=O)C2CC2)c2[nH]c(-c3ccc(C(=O)N4CCCC4)cc3OC)cc12 yielded pKd of > 9.70

CNC(=O)c1cnc(NC(=O)C2CC2)c2[nH]c(-c3cccc([C@H]4C[C@@H](OC)C4)c3F)cc12 yielded pKd of > 9.70

CNC(=O)c1cnc(NC(=O)C2CC2)c2[nH]c(-c3cccc([C@H]4C[C@H](OC)C4)c3F)cc12 yielded pKd of > 9.70

CNC(=O)c1cnc(NC(=O)C2CC2)c2[nH]c(-c3ccc4nc(C)n(C)c4c3F)cc12 yielded pKd of > 9.70

CNC(=O)c1cnc(NC(=O)C2CC2)c2[nH]c(-c3ccccc3C3(S(C)(=O)=O)CC3)cc12 yielded pKd of 8.00 to 9.00

CNC(=O)c1cnc(Nc2ccn(C)n2)c2[nH]c(-c3cccc(-c4cnn(C)c4)c3F)cc12 yielded pKd of > 9.70

CNC(=O)c1cnc(NC(=O)C2CC2)c2[nH]c(-c3cccc(-c4nc(C)n(C)n4)c3F)cc12 yielded pKd of > 9.70

CNC(=O)c1cnc(NC(=O)C2CC2)c2[nH]c(-c3ccc(-c4cnccn4)cc3F)cc12 yielded pKd of > 9.70

====

Entries and their measured pIC50 follow.
Tested on: IL-12 induced STAT4 phophorylation mediated by TYK2/JAK2 (heterodimeric complex)
Assay details: IL-12 Induced pSTAT4 in Human PBMC
Type: cell-based
Setup conditions: 1.7 ng/mL IL-12 for 30 minutes, 1 hr compound preincubation
pIC50: −log10 of the molar value.

Consider the following illustrative entries.
                    structure_smiles_string     val
0  CNC(=O)c1cnc(NC(=O)C2CC2)c2[nH]c(-c3cccc(-c4ncco4)c3F)cc12  > 7.00
1  CNC(=O)c1cnc(NC(=O)C2CC2)c2[nH]c(-c3cccc(-c4cnn(C)c4)c3F)cc12  > 7.00

CNC(=O)c1cnc(NC(=O)C2CC2)c2[nH]c(-c3cccn(-c4ncc(C)s4)c3=O)cc12 yielded pIC50 of 6.30 to 7.00
